condition-notes: human gut metagenome, 24 h, 2 µM; note: call rule not given here
quantity-measured: Bacterial Biotransformation

compound="CCCCC(=O)O[C@]1(C(=O)CO)[C@@H](C)C[C@H]2[C@@H]3CCC4=CC(=O)C=C[C@]4(C)[C@@]3(F)[C@@H](O)C[C@@]21C [BETAMETHASONE VALERATE]" recorded_measurement="Compound metabolized"
compound=c1ccc2[nH]c(-c3cscn3)nc2c1 recorded_measurement="Compound NOT metabolized"
compound=CC(=O)Oc1ccc(C(c2ccc(OC(C)=O)cc2)c2ccccn2)cc1 recorded_measurement="Compound metabolized"
compound="COc1ccc(CN2CCNCC2)c(OC)c1OC.Cl.Cl [TRIMETAZIDINE DIHYDROCHLORIDE]" recorded_measurement="Compound NOT metabolized"
compound="CN(C)CCC=C1c2ccccc2COc2ccccc21 [DOXEPIN]" recorded_measurement="Compound metabolized"
compound="Cc1cc(C)cc(OCC2CNC(=O)O2)c1 (configuration not stated)" recorded_measurement="Compound metabolized"
compound=C[C@]12CCC(=O)C=C1[C@@H]1C[C@@H]1[C@H]1[C@@H]3[C@@H]4C[C@@H]4[C@@]4(CCC(=O)O4)[C@@]3(C)CC[C@@H]12 recorded_measurement="Compound metabolized"
compound=O=C1CC2(CCCC2)CC(=O)N1CCCCN1CCN(c2ncccn2)CC1 recorded_measurement="Compound metabolized"
compound=COc1ccc2cc([C@H](C)C(=O)O)ccc2c1 recorded_measurement="Compound metabolized"
compound=Cc1cc2c(s1)Nc1ccccc1N=C2N1CCN(C)CC1 recorded_measurement="Compound metabolized"
compound=CCS(=O)(=O)CCn1c([N+](=O)[O-])cnc1C recorded_measurement="Compound metabolized"
compound="CN(C)CCOC(C)(c1ccccc1)c1ccccn1.O=C(O)CCC(=O)O (configuration not stated) [DOXYLAMINE SUCCINATE]" recorded_measurement="Compound NOT metabolized"
compound=Clc1cccc(Cl)c1N=C1NCCN1 recorded_measurement="Compound metabolized"
compound="CSc1ccc2c(c1)C(N1CCN(C)CC1)Cc1ccccc1S2.O=C(O)/C=C\\C(=O)O (configuration not stated)" recorded_measurement="Compound NOT metabolized"
compound=CN1CCC(OC(c2ccccc2)c2ccccc2)CC1 recorded_measurement="Compound NOT metabolized"
compound=CN1[C@@H]2CC[C@H]1C[C@@H](OC(=O)c1c[nH]c3ccccc13)C2 recorded_measurement="Compound NOT metabolized"
compound=CN[C@H]1CC[C@@H](c2ccc(Cl)c(Cl)c2)c2ccccc21 recorded_measurement="Compound NOT metabolized"
compound="CCN1CCCC1CNC(=O)c1cc(S(=O)(=O)CC)c(N)cc1OC (configuration not stated) [AMISULPRIDE]" recorded_measurement="Compound NOT metabolized"
compound=N=C(N)NC(=O)Cc1c(Cl)cccc1Cl recorded_measurement="Compound NOT metabolized"
compound="COC(=O)C(c1ccccc1)C1CCCCN1 (configuration not stated) [METHYLPHENIDATE]" recorded_measurement="Compound NOT metabolized"
compound="O=C1CN2Cc3c(ccc(Cl)c3Cl)N=C2N1 [ANAGRELIDE]" recorded_measurement="Compound NOT metabolized"
compound="CC(C)c1c(CN(C)C(C)Cc2ccccc2)n(C)n(-c2ccccc2)c1=O (configuration not stated)" recorded_measurement="Compound metabolized"
compound=O=C([O-])C[C@H](O)C[C@H](O)/C=C/c1c(C2CC2)nc2ccccc2c1-c1ccc(F)cc1.O=C([O-])C[C@H](O)C[C@H](O)/C=C/c1c(C2CC2)nc2ccccc2c1-c1ccc(F)cc1.[Ca+2] recorded_measurement="Compound metabolized"
compound=CNNCc1ccc(C(=O)NC(C)C)cc1 recorded_measurement="Compound metabolized"
compound="CC(C)NCC(O)COc1ccc(CC(N)=O)cc1 (configuration not stated)" recorded_measurement="Compound NOT metabolized"
compound="C=C[C@H]1CN2CC[C@H]1C[C@H]2[C@H](O)c1ccnc2ccc(OC)cc12.C=C[C@H]1CN2CC[C@H]1C[C@H]2[C@H](O)c1ccnc2ccc(OC)cc12.O.O.O=S(=O)(O)O [QUININE SULFATE]" recorded_measurement="Compound NOT metabolized"
compound="CCCC(C)(COC(N)=O)COC(=O)NC(C)C (configuration not stated)" recorded_measurement="Compound metabolized"
compound="CCOc1ccccc1OCCN[C@H](C)Cc1ccc(OC)c(S(N)(=O)=O)c1.Cl [TAMSULOSIN HYDROCHLORIDE]" recorded_measurement="Compound NOT metabolized"
compound="CC(C)(C)NCC(O)COc1cccc2c1CC(O)C(O)C2 (configuration not stated)" recorded_measurement="Compound metabolized"
compound=CC(C)c1nc(N(C)S(C)(=O)=O)nc(-c2ccc(F)cc2)c1/C=C/[C@@H](O)C[C@@H](O)CC(=O)[O-].CC(C)c1nc(N(C)S(C)(=O)=O)nc(-c2ccc(F)cc2)c1/C=C/[C@@H](O)C[C@@H](O)CC(=O)[O-].[Ca+2] recorded_measurement="Compound metabolized"
compound=CNCC[C@H](Oc1cccc2ccccc12)c1cccs1 recorded_measurement="Compound NOT metabolized"
compound=CC(=O)O[C@H]1C(=O)[C@@]2(C)[C@H]([C@H](OC(=O)c3ccccc3)[C@]3(O)C[C@H](OC(=O)[C@H](O)[C@@H](NC(=O)c4ccccc4)c4ccccc4)C(C)=C1C3(C)C)[C@]1(OC(C)=O)CO[C@@H]1C[C@@H]2O recorded_measurement="Compound metabolized"

###

assay-text: The drug is tested on WLS-350 corresponding to human gut metagenome with ENA study accession number: PRJEB37062 and ENA sample accession number: ERS12561789 for biotransformation under anaerobic condition. The drug concentrations were measured over 9 timepoints collected between 0 and 24 hours of incubation by liquid-chromatography-coupled mass spectrometry (LC–MS)
condition-notes: 2 µM
quantity-measured: Bacterial Biotransformation

compound="CC(C)c1c(CN(C)C(C)Cc2ccccc2)n(C)n(-c2ccccc2)c1=O (centres undefined) [FAMPROFAZONE]" recorded_measurement="Compound metabolized"
compound="Br.COc1ccc2c(c1)[C@]13CCCC[C@@H]1[C@H](C2)N(C)CC3.O [DEXTROMETHORPHAN HYDROBROMIDE]" recorded_measurement="Compound metabolized"
compound="CC(C)[C@H]1CC[C@H](C(=O)N[C@H](Cc2ccccc2)C(=O)O)CC1 [NATEGLINIDE]" recorded_measurement="Compound metabolized"

###

condition-notes: human gut metagenome, 24 h, 2 µM
quantity-measured: Bacterial Biotransformation

compound="CCCN1C[C@H](CSC)C[C@@H]2c3cccc4[nH]cc(c34)C[C@H]21.CS(=O)(=O)O [PERGOLIDE MESYLATE]" recorded_measurement="Compound NOT metabolized"
compound=CC(=O)CCCCn1c(=O)c2c(ncn2C)n(C)c1=O recorded_measurement="Compound NOT metabolized"
compound="CCN(C)C(=O)Oc1cccc([C@H](C)N(C)C)c1.O=C(O)C(O)C(O)C(=O)O [RIVASTIGMINE TARTRATE]" recorded_measurement="Compound NOT metabolized"
compound="CC(C)c1c(CN(C)C(C)Cc2ccccc2)n(C)n(-c2ccccc2)c1=O (stereo unspecified)" recorded_measurement="Compound metabolized"
compound=CCc1oc2ccccc2c1C(=O)c1cc(Br)c(O)c(Br)c1 recorded_measurement="Compound metabolized"
compound="CC(C)C[C@H]1C(=O)N2CCC[C@H]2[C@]2(O)O[C@](NC(=O)[C@@H]3C=C4c5cccc6[nH]c(Br)c(c56)C[C@H]4N(C)C3)(C(C)C)C(=O)N12.CS(=O)(=O)O [BROMOCRIPTINE MESYLATE]" recorded_measurement="Compound NOT metabolized"
compound="Br.COc1ccc2c(c1)[C@]13CCCC[C@@H]1[C@H](C2)N(C)CC3.O [DEXTROMETHORPHAN HYDROBROMIDE]" recorded_measurement="Compound metabolized"
compound=O=C(CCCN1CCC2(CC1)C(=O)NCN2c1ccccc1)c1ccc(F)cc1 recorded_measurement="Compound NOT metabolized"
compound=O=C(O)c1cc(/N=N/c2ccc(S(=O)(=O)Nc3ccccn3)cc2)ccc1O recorded_measurement="Compound metabolized"
compound="CC(=O)Nc1ccc(OC(C)=O)cc1 [DIACETAMATE]" recorded_measurement="Compound metabolized"
compound="CN(C)C(=O)Oc1cc(OC(=O)N(C)C)cc(C(O)CNC(C)(C)C)c1 (stereo unspecified)" recorded_measurement="Compound metabolized"
compound=CCCN(CCC)CCc1cccc2c1CC(=O)N2 recorded_measurement="Compound NOT metabolized"
compound="O=C1C(CC[S+]([O-])c2ccccc2)C(=O)N(c2ccccc2)N1c1ccccc1 (stereo unspecified)" recorded_measurement="Compound metabolized"
compound="COC(=O)[C@H](c1ccccc1Cl)N1CCc2sccc2C1.O=S(=O)(O)O [CLOPIDOGREL BISULFATE]" recorded_measurement="Compound metabolized"
compound=COc1ccc([C@@H]2Sc3ccccc3N(CCN(C)C)C(=O)[C@@H]2OC(C)=O)cc1 recorded_measurement="Compound metabolized"
compound=COc1ccc2c(c1)c(CC(=O)O)c(C)n2C(=O)c1ccc(Cl)cc1 recorded_measurement="Compound metabolized"
